Reference for the values: patent US10077287B2

tested on: N87 (human gastric cancer); assay: Inhibition of cell proliferation (ATP luminescence or MTS assay), N87; assay type: cell-based; settings: 72 h, read-out: Cancer Cell Line: EC50 (nM) N87
reported_endpoint: EC50 (nM)
# output: bare number, implied unit nM

Worked cases, answers included:
{"molecule_smiles": "CCCN(C(=O)[C@@H](NC(=O)[C@H]1CCCCN1C)[C@@H](C)CC)[C@H](C[C@@H](OC(=O)NC)c1nc(C(=O)N[C@@H](Cc2ccc(N)cc2)CC2(C(=O)OC)CC2)cs1)C(C)C", "reported_endpoint": "EC50", "test_value": 4.4}
{"molecule_smiles": "CCCN(C(=O)[C@@H](NC(=O)[C@H]1CCCCN1C)C(C)C)[C@H](C[C@@H](OC(C)=O)c1nc(C(=O)N[C@@H](Cc2ccc(N)cc2)CC(C)(C)C(=O)O)cs1)C(C)C", "reported_endpoint": "EC50", "test_value": 0.16}

Entry under test: CCCN(C(=O)[C@@H](NC(=O)[C@H](NC)C(C)C)[C@@H](C)CC)[C@H](C[C@@H](OC(=O)NC)c1nc(C(=O)N[C@@H](Cc2ccccc2)CC(C)(C)C(=O)O)cs1)C(C)C . Its EC50 was 0.37

Entry under test: CCCN(C(=O)[C@@H](NC(=O)[C@H](NC)C(C)C)[C@@H](C)CC)[C@H](C[C@@H](OC(C)=O)c1nc(C(=O)N[C@@H](Cc2ccccc2)CC(C)(C)C(=O)O)cs1)C(C)C . Its EC50 was 0.2

Entry under test: CCCN(C(=O)[C@@H](NC(=O)[C@H]1CCCCN1C)[C@@H](C)CC)[C@H](C[C@@H](OC(=O)NC)c1nc(C(=O)N[C@@H](Cc2ccc(N)cc2)CC2(C(=O)O)CC2)cs1)C(C)C . Its EC50 was 1.7
